Form field: GI50 (one value per entry).
test system: U-251; test: NCI tumour cell line growth inhibition, 48 h
Active and inactive are the calls of the source. Cut-off read from the data, not from the text of the source: active = GI50 up to about 1.1 µM and inactive = higher.

Completed entries (count: 3):
{"MOLECULE": "COc1cc(C2C3=C(NC(=O)C2C#N)c2ccc4ccccc4c2OCC3)cc(OC)c1OC (centres undefined)", "RESULT": "16.7 µM (inactive)"}
{"MOLECULE": "S=C(Nc1ccccc1)Nc1[nH]c(=S)sc1-c1nc2ccccc2[nH]1", "RESULT": "80 µM (inactive)"}
{"MOLECULE": "Cc1c(Cl)c2ccccc2n1S(=O)(=O)c1ccccc1", "RESULT": "88.9 µM (inactive)"}

Give reported GI50 value for COc1ccccc1/C=C/C(=O)c1sc(-c2cccnc2)nc1C
> 100 µM (inactive)

====

tested on: SK-MEL-5; test: NCI tumour cell line growth inhibition, 48 h
Calls of active or inactive are those of the source. No stated cut-off is given here; in the data, active = GI50 up to about 1.1 µM and inactive = higher.
REPORTED METRIC: GI50

{"COMPOUND": "COc1cc(C2=C(C)[C@@H]3CN(CC=C3c3ccc(Cl)cc3)C2)c(S(=O)(=O)O)cc1OC", "GI50": "> 100 µM (inactive)"}
{"COMPOUND": "O=C1NC(=O)C(=O)C(c2nc3ccccc3s2)C1=O", "GI50": "> 100 µM (inactive)"}

Please turn your attention to the following entry.
Supply measured GI50 of CCCC(=O)OC[n+]1cccc(-c2c(COC(=O)NC(C)C)c(COC(=O)NC(C)C)c3n2CCC3)c1 in your reply.
69.7 µM (inactive)

====

tested on: A549; experiment: NCI tumour cell line growth inhibition, 48 h
Calls of active or inactive are those of the source. No stated cut-off is given here; in the data, active = GI50 up to about 1.1 µM and inactive = higher.
The entries below are paired with their reported GI50.

Some solved entries appear below for comparison.
{"COMPOUND": "COc1cc(/C=C2/SC(c3ccccc3)N(c3cccc(NC(C)=O)c3)C2=O)cc(OC)c1OC (stereo not given)", "TARGET UNDER TEST": "A549", "GI50": "47.4 µM (inactive)"}
{"COMPOUND": "CCCCCCCCNC(=O)C1=C(C)NC(C)=C(C(=O)NCCCCCCCC)C1", "TARGET UNDER TEST": "A549", "GI50": "> 100 µM (inactive)"}

Return reported GI50. Input compound: Cc1ccc2c(n1)C(=O)c1cc(C)c(C)cc1C2=O
64.9 µM (inactive)

Indicate its recorded GI50; the compound in question is CCCCNC(=S)Nc1nc(C(=O)NNS(=O)(=O)c2ccccc2)cs1
40.3 µM (inactive)

Please list GI50 recorded for the compound CC(=O)Nc1ccc(-c2nc3cc(Cl)ccc3o2)cc1
> 50 µM (inactive)

====

test system: HT-29; assay: NCI tumour cell line growth inhibition, 48 h
Active and inactive are the calls of the source. Cut-off read from the data, not from the text of the source: active = GI50 up to about 1.1 µM and inactive = higher.
One label from this list, please: t = active, f = inactive

Please share the test call associated with CN(C)CCNC(=O)c1cccc2c(NC(CS)C(=O)O)c3ccccc3[n+](C)c12 (centres undefined) .
f

Hey, what did the test say about C/C(=N\N)C(CN1CCOCC1)C(c1ccccc1)c1c(O)c2ccccc2oc1=O (centres undefined) ?
f

Dear colleague, could you share the recorded outcome for Cc1c(C(=O)CC(=O)C(=O)Nc2ccc(Cl)c(Cl)c2)[n+]([O-])c2ccccc2[n+]1[O-] when you have a moment?
f

Recorded test outcome, item C=CCc1cccc2cc(C(=O)NC3CCCCC3)c(=N)oc12
f

Per the records of this test, what outcome belongs to O=C(O)c1cc(C(=O)O)cc(N2C(=O)c3ccccc3C2=O)c1 ?
f

Field: outcome | Entry: CC1=CCC([C@@](C)(O)CCCC(C)(C)N=C=S)CC1 (some centres undefined)
f

Called result for O=C/C(=C(/Br)I)c1ccccc1
f
